experimentalDetails: NCI Yeast Anticancer Drug Screen. Data for the mlh1 rad18 strain (AID 175)
measurementSetup: S. cerevisiae mlh1 rad18 strain growth inhibition; at 50.0 µM; active compounds read high
The panel holds about 79,000 compounds, 15% with a hit somewhere; the sample as a whole holds those more often.
Recorded measurements of growth inhibition, one per entry
A number alone suffices; assume %.

COc1ccc(CC(C)SC(CC(=O)O)C(=O)O)cc1 (stereo not drawn)
-8.2
CC1(C)COC(c2ccc3ccccc3c2)OC1
-5.8
CCCC(=O)OCC(C)(C)CC(C)C
-24.4
N#C/C(=C\c1ccco1)C(=O)c1ccco1
34.6
Cc1ccc(N=Cc2cccs2)c(Br)c1
5.95
N/N=C1\CCCc2c1no[n+]2[O-]
3.2
CC([O-])=C1C(=O)c2ccccc2C1=O.CC([O-])=C1C(=O)c2ccccc2C1=O.CC[O-].CC[O-].[Ti+4]
36.5
Cc1cc(OC(=O)c2c(C)cc(OC(=O)c3c(C)cc(O)cc3O)cc2O)cc(O)c1C(=O)O
-2.15
CCc1ccc([OH2+])c(C(=O)[O-])c1.CCc1ccc([OH2+])c(C(=O)[O-])c1.CCc1ccc([OH2+])c(C(=O)[O-])c1.CCc1ccc([OH2+])c(C(=O)[O-])c1.[Cu+2].[Cu+2]
20.9
N#C/C(=C\n1c(=S)[nH]c2ccccc21)c1nc2ccccc2s1
36.8

**Q:** Can you share its growth inhibition? I mean this compound: Cc1ccccc1C(C#N)/C(=N/NC(N)=S)C(=O)Nc1c(C)cccc1C (stereo not drawn)
**A:** -31.1

**Q:** Can you share its growth inhibition? I mean this compound: N#Cc1ccc(NC(=O)C(CC(=O)OCc2ccccc2)NC(=O)OCc2ccccc2)cc1 (stereo not drawn)
**A:** -8.05

**Q:** Can you share its growth inhibition? I mean this compound: COC1=CC(=O)O/C1=C(\OC)C1OC1c1ccccc1 (stereo not drawn)
**A:** -24.9

**Q:** Can you share its growth inhibition? I mean this compound: O=C(O)COc1c2occc2cc2ccc(=O)oc12
**A:** 6

**Q:** Can you share its growth inhibition? I mean this compound: CC(=O)Oc1cccc2c1C(=O)C1CC(O)C3(C=O)OC(C)(C)OC2(C)C13 (stereo not drawn)
**A:** 3.6

----------
experimentalDetails: NCI Yeast Anticancer Drug Screen. Data for the rad50 strain (AID 155);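 also: 0% = growth of vehicle-only cultures of the same strain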
measurementSetup: S. cerevisiae rad50 strain growth inhibition; at 50.0 µM; active compounds read high
Compounds without any hit were thinned out: in the full panel of roughly 79,000, 15% have a hit.
Recorded measurements of growth inhibition, one per entry
A number alone suffices; assume %.

N#CC1(Cc2ccccc2[N+](=O)[O-])c2ccccc2C2C(N1C(=O)c1ccccc1)C2(Cl)Cl (stereo unspecified)
-2.5
CC1=CC(=O)/C(=C/N2CCNC2=S)C(=O)O1
-24.6
C/C(=N\Nc1ccc2ccccc2n1)c1ccccc1O
-19
O=C1Oc2cc3c(c4cccc1c24)OCN(c1ccc(Cl)cc1)C3
38.6
NC(CCCCCCCCCCP(=O)(O)O)C(=O)O (stereo unspecified)
-39.6

**Q:** Can you share its growth inhibition? I mean this compound: Oc1ccc(Cl)c(O)c1
**A:** 30.1

**Q:** Can you share its growth inhibition? I mean this compound: O=c1c2c(-c3cc(-c4ccccc4)nc4[nH]n(-c5ccccc5)c(=O)c34)cc(-c3ccccc3)nc2[nH]n1-c1ccccc1
**A:** 0.45

**Q:** Can you share its growth inhibition? I mean this compound: Cn1nnnc1CC(=O)O
**A:** 1.3

**Q:** Can you share its growth inhibition? I mean this compound: Nc1nc(Br)nc2ncn(C3CC(O)C(CO)O3)c12 (stereo unspecified)
**A:** 20.1

**Q:** Can you share its growth inhibition? I mean this compound: C\C(=C/C(=N/N=C\c1ccccc1O)c1ccccc1)c1ccccc1
**A:** 13.8

**Q:** Can you share its growth inhibition? I mean this compound: CC1=C/C(=N\NC(=O)c2ccc[n+](C)c2)CC(C)(C)C1
**A:** 18.7

**Q:** Can you share its growth inhibition? I mean this compound: Cn1c(=O)n2n(c1=O)C1C=CC2C2C=C(c3ccccc3)C21 (stereo unspecified)
**A:** -18.4

**Q:** Can you share its growth inhibition? I mean this compound: CCC(Nc1nncs1)Nc1nncs1
**A:** -21.9

**Q:** Can you share its growth inhibition? I mean this compound: CCOC(=O)N1CCN(P(=O)(Nc2ccc3nc(NC(=O)OC)[nH]c3c2)Oc2ccccc2)CC1 (stereo unspecified)
**A:** -38.5

**Q:** Can you share its growth inhibition? I mean this compound: CCCCSc1ncnc2nc(C)[nH]c12
**A:** -9.85

**Q:** Can you share its growth inhibition? I mean this compound: Cc1ccc(C2OC(N)=C(O)C2=O)cc1 (stereo unspecified)
**A:** -43

**Q:** Can you share its growth inhibition? I mean this compound: COc1cnn(-c2ccccc2)c(=O)c1Cl
**A:** -1.4

----------
experimentalDetails: NCI Yeast Anticancer Drug Screen. Data for the sgs1 mgt1 strain (AID 161);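 also: 0% = growth of cultures given vehicle only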
measurementSetup: S. cerevisiae sgs1 mgt1 strain, at 50.0 µM, active compounds read high
About 79,000 compounds went through this panel and 15% of them were active in at least one assay; those are over-represented in the sample as a whole.
measurementLabel: growth inhibition (%)
A number alone suffices; assume %.

For orientation, consider the following solved cases.
Cn1c(/N=C(/N)N=C(N)N)cc(=O)n(C)c1=O
20.3
O=C1OC2=C(CCCC2)C(N2CCCCC2)C12SCCCS2 (configuration not stated)
-6.75

**Q:** Can you share its growth inhibition? I mean this compound: O=C(CSc1nc(-c2ccccc2)c(-c2ccccc2)[nH]1)NNC(=S)Nc1ccccc1
**A:** -7.15

**Q:** Can you share its growth inhibition? I mean this compound: CN(C(=O)c1ccncc1)c1ccccc1
**A:** -14.1

**Q:** Can you share its growth inhibition? I mean this compound: O=c1[nH]cnc2ccccc12
**A:** 0.2

**Q:** Can you share its growth inhibition? I mean this compound: CC(=O)Oc1c(C)cc(C(=O)CO)cc1C
**A:** 27.7

**Q:** Can you share its growth inhibition? I mean this compound: CCC1=Nc2ccccc2C(c2ccccc2)NC1=O (configuration not stated)
**A:** 4.5

----------
experimentalDetails: NCI Yeast Anticancer Drug Screen. Data for the sgs1 mgt1 strain (AID 161);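 also: 0% = growth of cultures given vehicle only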
measurementSetup: S. cerevisiae sgs1 mgt1 strain, at 50.0 µM, active compounds read high
Compounds without any hit were thinned out: in the full panel of roughly 79,000, 15% have a hit.
measurementLabel: growth inhibition (%)
A number alone suffices; assume %.

For orientation, consider the following solved cases.
Cc1ccc2nc(CN(CCO)CCO)cc(=O)n2c1
40.5
C=CCS(=O)(=O)c1ccc(Cl)cc1
-20.5

**Q:** Can you share its growth inhibition? I mean this compound: COC(=O)C(CC(=O)c1ccc2ccccc2c1)OC (configuration not stated)
**A:** 7.2

**Q:** Can you share its growth inhibition? I mean this compound: CC(C)C(NC(=O)C1CCCN1)P(=O)(O)O (configuration not stated)
**A:** 4.55

**Q:** Can you share its growth inhibition? I mean this compound: Nc1c(S(=O)(=O)O)cc(Nc2cccc(S(=O)(=O)/C=C/S(=O)(=O)O)c2)c2c1C(=O)c1ccccc1C2=O
**A:** -1.2

**Q:** Can you share its growth inhibition? I mean this compound: O=C1COC(=O)/C1=C/c1ccccc1
**A:** -4.75

**Q:** Can you share its growth inhibition? I mean this compound: COc1ccc(OC)c(CNc2ccc(C(=O)O)cc2)c1
**A:** 15

----------
Recorded measurements of growth inhibition, one per entry
experimentalDetails: NCI Yeast Anticancer Drug Screen. Data for the bub3 strain (AID 167)
measurementSetup: S. cerevisiae bub3 mutant strain, at 50.0 µM, active compounds read high
Compounds without any hit were thinned out: in the full panel of roughly 79,000, 15% have a hit.
A number alone suffices; assume %.

For orientation, consider the following solved cases.
CC12CCC(C(=O)n3c1nc1ccccc13)C(C)(C)O2 (centres undefined)
4.25
CN(C)S(=O)(=O)C(C(=O)Nc1ccccc1)c1ccccc1 (centres undefined)
-5.95
Cc1ccc(C(=O)N(C(C)C)C(C)C)cc1N=NN(C)C
-20.6
Nc1cc(Cl)c(N(CCO)C2=NCCN2)c(Cl)c1
1.3
O=P(O)(CP(=O)(c1ccccc1)c1ccccc1)c1ccccc1
5.9
O=C(Cc1ccccc1)NNC(=O)Nc1ccccc1
2.5
O=C1/C(=C/c2ccco2)N=C2Sc3c(nc[nH]c3=O)N12
9.5
CC(=O)Nc1ccc(C2CC(c3ccc([N+](=O)[O-])cc3)=Nc3ccccc3S2)cc1 (centres undefined)
13.9
Nc1cc(N)nc(S(=O)O)n1
19.8
O=C(NCCN1CCCC1)Nc1ccccc1Cl
34.1

**Q:** Can you share its growth inhibition? I mean this molecule: O=C(O)CCc1ccc2c(c1)OCO2
**A:** -34.1

**Q:** Can you share its growth inhibition? I mean this molecule: O=C(C(=O)c1ccccc1)c1ccccc1
**A:** 9.9

**Q:** Can you share its growth inhibition? I mean this molecule: NC(=O)NC(=O)Cc1ccc(N)cc1
**A:** 4

**Q:** Can you share its growth inhibition? I mean this molecule: COC(=O)C(C)S(=O)(=O)O (centres undefined)
**A:** 2.9
